target.under.test: T1, human PD-L1 (human, UniProt Q9NZQ7 19-290)
T1 construct: whole, on cells; CHO cells stably expressing huPD-L1; also called huPD-L1
assay.notes: flow cytometry MFI relative to WT CD80 IgV-Fc, CHO/huPD-L1 cells, 33.3 nM
recorded.metric: Fold change to WT CD80 (fold)
Reply numerically in fold, unit not repeated.

Some binders with known Fold change to WT CD80 results, for comparison:
[[record]]
binder = "variant CD80 IgV-Fc (inert) H18Y/A26P/E35D/M47I/V68M/A71G (Fc fusion, not shown: inert human IgG1 Fc) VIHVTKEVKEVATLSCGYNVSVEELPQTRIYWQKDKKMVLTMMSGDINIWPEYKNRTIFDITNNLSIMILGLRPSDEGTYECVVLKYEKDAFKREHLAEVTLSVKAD"
recorded_metric = "Fold change to WT CD80"
unit_abbreviation = "fold"
numeric_value = 330

[[record]]
binder = "variant CD80 IgV-Fc (inert) H18V/A26D/E35D/M47V/V68M/A71G/D90G (Fc fusion, not shown: inert human IgG1 Fc) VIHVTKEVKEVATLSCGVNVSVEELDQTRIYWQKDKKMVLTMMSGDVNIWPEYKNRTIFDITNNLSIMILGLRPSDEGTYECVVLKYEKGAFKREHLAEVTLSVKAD"
recorded_metric = "Fold change to WT CD80"
unit_abbreviation = "fold"
numeric_value = 409


Attention now shifts to the item below.
What value of Fold change to WT CD80 has been reported for the following binder? variant CD80 IgV-Fc (inert) H18Y/E35D/M47V/V68M/A71G (Fc fusion, Fc fusions are dimeric by the general description; not shown: inert human IgG1 Fc) VIHVTKEVKEVATLSCGYNVSVEELAQTRIYWQKDKKMVLTMMSGDVNIWPEYKNRTIFDITNNLSIMILGLRPSDEGTYECVVLKYEKDAFKREHLAEVTLSVKAD
393
